- Study System: TLR7 (Homo sapiens (Human), UniProt Q9NYK1)
- Sequence (Q9NYK1 27-1049): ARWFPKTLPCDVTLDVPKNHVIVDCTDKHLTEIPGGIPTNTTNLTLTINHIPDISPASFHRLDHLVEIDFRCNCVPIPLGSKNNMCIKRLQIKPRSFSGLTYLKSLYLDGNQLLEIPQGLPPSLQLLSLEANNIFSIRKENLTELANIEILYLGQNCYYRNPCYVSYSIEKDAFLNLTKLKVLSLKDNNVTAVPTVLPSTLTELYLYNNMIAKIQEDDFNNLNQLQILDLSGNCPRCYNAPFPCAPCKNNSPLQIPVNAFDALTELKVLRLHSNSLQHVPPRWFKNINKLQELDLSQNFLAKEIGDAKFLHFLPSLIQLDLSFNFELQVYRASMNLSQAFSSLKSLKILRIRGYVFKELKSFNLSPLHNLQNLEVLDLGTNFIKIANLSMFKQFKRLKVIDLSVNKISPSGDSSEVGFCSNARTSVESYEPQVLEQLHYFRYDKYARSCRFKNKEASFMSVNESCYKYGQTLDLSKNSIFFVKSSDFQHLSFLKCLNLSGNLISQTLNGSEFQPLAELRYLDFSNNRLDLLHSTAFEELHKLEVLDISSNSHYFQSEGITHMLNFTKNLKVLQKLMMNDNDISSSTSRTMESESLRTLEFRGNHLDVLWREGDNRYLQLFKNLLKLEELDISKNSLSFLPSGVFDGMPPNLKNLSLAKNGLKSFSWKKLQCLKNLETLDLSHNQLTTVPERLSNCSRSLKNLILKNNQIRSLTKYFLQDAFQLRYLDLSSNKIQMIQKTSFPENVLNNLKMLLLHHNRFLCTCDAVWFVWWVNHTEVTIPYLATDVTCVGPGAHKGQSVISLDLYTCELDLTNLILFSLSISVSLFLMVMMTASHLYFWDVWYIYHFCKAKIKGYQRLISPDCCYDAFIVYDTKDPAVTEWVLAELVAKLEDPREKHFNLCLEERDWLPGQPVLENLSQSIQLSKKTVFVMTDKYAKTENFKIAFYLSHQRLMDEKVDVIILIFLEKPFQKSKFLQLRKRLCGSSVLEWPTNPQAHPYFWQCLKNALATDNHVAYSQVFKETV
- Procedure Summary: TLR7 agonist bioactivity: induction of IFNα protein in pDC-enriched PBMC cultures (ELISA, 24 h)
- Type: cell-based
- Condition: IFNα induction, pDC-enriched human PBMC, 24 hours
Metric: EC50 (nM)

Some entries whose results are on file:
What value of EC50 has been reported for the following compound? `CCCCCCCCCC(=O)NCc1ccc(Cn2c(CCCC)nc3c(N)nc4ccccc4c32)cc1`
2

Given the compound `CCCCCCCCCCCC(=O)NCc1ccc(Cn2c(CCCC)nc3c(N)nc4ccccc4c32)cc1` , what is its reported EC50?
3

a = CCCCCNCc1ccc(Cn2c(CCCC)nc3c(N)nc4ccccc4c32)cc1
b = CCCCCCCCCCCCNCc1ccc(Cn2c(CCCC)nc3c(N)nc4ccccc4c32)cc1
Lab log: flag the item ( a or b ) with the smaller EC50 figure. Answer by quoting the chosen item's label.
a

----------
- Study System: TLR7 (Homo sapiens (Human), UniProt Q9NYK1)
- Procedure Summary: TLR7 agonist bioactivity: induction of IFNα protein in pDC-enriched PBMC cultures (ELISA, 24 h)
- Format: cell-based
- Condition: IFNα induction, pDC-enriched human PBMC, 24 hours
Metric: EC50 (nM)

Worked set:
What value of EC50 has been recorded for this entry: CCCCCCCCC(=O)NCc1ccc(Cn2c(CCCC)nc3c(N)nc4ccccc4c32)cc1 [Compound No. 63-05]
3

# lookup: EC50 of CCCCCCCCCCCCC(=O)NCc1ccc(Cn2c(CCCC)nc3c(N)nc4ccccc4c32)cc1 [Compound No. 63-09]
2

Name the reported EC50 value associated with the compound CCCCCCCCCCCCCCCCCCNCc1ccc(Cn2c(CCCC)nc3c(N)nc4ccccc4c32)cc1 [Compound No. 63-29]
19

I am curious: what EC50 value has been reported for CCCCCCCCCCCCCCCCNCc1ccc(Cn2c(CCCC)nc3c(N)nc4ccccc4c32)cc1 [Compound No. 63-32, reference compound] ?
157

Would you mind telling me what EC50 value was observed for CCCCCCCCCCNCc1ccc(Cn2c(CCCC)nc3c(N)nc4ccccc4c32)cc1 [Compound No. 63-22] ?
62

Could you tell me which EC50 is on file for CCCCCCNCc1ccc(Cn2c(CCCC)nc3c(N)nc4ccccc4c32)cc1 [Compound No. 63-18] ?
15

Could you tell me which EC50 is on file for CCCCc1nc2c(N)nc3ccccc3c2n1Cc1ccc(CNCCC2CC2)cc1 [Compound No. 63-33] ?
4

Sample CCCCCCCCNCc1ccc(Cn2c(CCCC)nc3c(N)nc4ccccc4c32)cc1 [Compound No. 63-20] — what was its EC50?
51

1 = CCCCc1nc2c(N)nc3ccccc3c2n1Cc1ccc(CNC(=O)CC2CC2)cc1 [Compound No. 63-34]
2 = CCCCCCCCCCC(=O)NCc1ccc(Cn2c(CCCC)nc3c(N)nc4ccccc4c32)cc1 [Compound No. 63-07]
Hey, which is lower on measured EC50, 1 or 2 ? Refer to your chosen entry by its label in the reply.
2
(2: 1 nM, 1: 8 nM)

I = CCCCCCCCCCCCCCCC(=O)NCc1ccc(Cn2c(CCCC)nc3c(N)nc4ccccc4c32)cc1 [Compound No. 63-31, reference compound]
II = CCCCCCCCCNCc1ccc(Cn2c(CCCC)nc3c(N)nc4ccccc4c32)cc1 [Compound No. 63-21]
III = CCCCCCCNCc1ccc(Cn2c(CCCC)nc3c(N)nc4ccccc4c32)cc1 [Compound No. 63-19]
Order the records, beginning with the lowest EC50 and ending with the highest. The response must list the labels following the requested ordering.
I, III, II
(I: 3 nM, III: 24 nM, II: 68 nM)
